Known logP of a selection of compounds
Test: Octanol-water partition coefficient, log P of nonionized form of compound
Assay type: physicochemical
Keep it simple and answer with nothing but the number.

Solved cases below.
{"compound": "CCCCC1(CC)C(=O)NC(=O)NC1=O [BUTETHAL]", "measured.quantity": "logP", "test.result": 1.65}
{"compound": "CCCC(C)C1(CC)C(=O)NC(=S)NC1=O (stereo not drawn) [THIOPENTAL]", "measured.quantity": "logP", "test.result": 3}
{"compound": "C=CCC1(CC(C)C)C(=O)NC(=O)NC1=O [BUTALBITAL]", "measured.quantity": "logP", "test.result": 1.45}

Problem: Find the recorded logP belonging to CCC1(CC)C(=O)NC(=O)N(C)C1=O [METHARBITAL] and report it.
Solution: 1.21

Problem: Query: logP; subject: C=CCC1(C(C)CCC)C(=O)NC(=O)NC1=O (stereo not drawn) [SECOBARBITAL]
Solution: 2.15

Problem: Which logP is listed for CCCC(C)C1(CC)C(=O)NC(=O)NC1=O (stereo not drawn) [PENTOBARBITAL] ?
Solution: 1.95

Problem: Could you share which logP value was measured for CCC1(CCC(C)C)C(=O)NC(=O)NC1=O [AMOBARBITAL] ?
Solution: 1.95

Problem: May I ask what logP has been recorded for O=C1CC(=O)NC(=O)N1 [BARBITURIC ACID] ?
Solution: -1.35

* * *

Test: Retention index of the compound by HPLC method
Format: physicochemical
measured.quantity: Retention_index
Respond numerically, and do not add a unit to the figure.

Worked cases, answers included:
{"compound": "Cc1ccc(S(=O)(=O)Nc2ccccc2C(=O)O)cc1", "Retention_index": 606}
{"compound": "O=C(O)c1ccccc1NS(=O)(=O)c1ccc(Br)cc1", "Retention_index": 678}

Problem: Which Retention_index is reported for this compound? `CCC1(CC)C(=O)NC(=O)N(C)C1=O`
Solution: 532

Problem: Record request: Retention_index value, item CN1C(=O)NC(=O)C(C)(C2=CCCCC2)C1=O (stereo not given) [HEXOBARBITAL]
Solution: 648

Problem: Suppose we examine the compound `O=C(O)c1ccccc1NS(=O)(=O)c1ccccc1` ; what Retention_index value has been reported?
Solution: 530

* * *

Assay: Retention index of the compound by HPLC method
Format: physicochemical
measured.quantity: Retention_index
Lab note: jot down the number only; don't add units.

// solved cases for Retention_index follow
{"molecule": "C=CCC1(C(C)CCC)C(=O)NC(=O)NC1=O (stereo not given) [SECOBARBITAL]", "Retention_index": 728}
{"molecule": "CCC(C)C1(CC)C(=O)NC(=O)NC1=O (stereo not given) [BUTABARBITAL]", "Retention_index": 600}

Problem: Item under review: CCC1(C2=CCCCC2)C(=O)NC(=O)NC1=O [CYCLOBARBITAL] . Reported Retention_index?
Solution: 604

Problem: Any idea what its Retention_index is? The molecule is `O=C(O)c1ccccc1NS(=O)(=O)c1ccc(F)cc1`
Solution: 565

Problem: Look up Retention_index: C=CCC1(C(C)C)C(=O)NC(=O)NC1=O [APROBARBITAL]
Solution: 552

Recorded values, source ChEMBL document CHEMBL3244304.
